SYSTEM NAME: rat intestinal α-glucosidase (maltase)
ASSAY METHOD TEXT: rat intestinal α-glucosidase (maltase) inhibition assay
EXPERIMENTAL PARAMETERS: rat intestine; compounds, Table 2
What IC50 was measured for each of the following?

[
  {
    "STRUCTURE AS SMILES": "C=C(C)[C@@H]1CC[C@]2(C(=O)O)CC[C@]3(C)[C@H](CC[C@@H]4[C@@]5(C)CC[C@H](OC(=O)CC)C(C)(C)[C@@H]5CC[C@]43C)[C@@H]12",
    "RESULT": "> 3 mM"
  }
]

Okay, here is my list. What is IC50 for each of these?
1. C=C(C)[C@@H]1CC[C@]2(C(=O)O)CC[C@]3(C)[C@H](CC[C@@H]4[C@@]5(C)CC[C@H](OC(=O)c6ccccc6)C(C)(C)[C@@H]5CC[C@]43C)[C@@H]12
2. COc1cc([C@H]2c3c(cc(OC)c(O)c3OC)C[C@@H](CO)[C@@H]2CO[C@@H]2O[C@H](CO)[C@@H](O)[C@H](O)[C@H]2O)cc(OC)c1O

Solution:
["> 3 mM", "0.373 mM"]

---

Assignment: determine reported IC50 for the given compounds.
SYSTEM NAME: α-Glucosidase (EC 3.2.1.20) from Saccharomyces cerevisiae (Baker's yeast) (Saccharomyces cerevisiae)
Construct: purchased Sigma-Aldrich (St. Louis, MO)
ASSAY METHOD TEXT: biochemical
EXPERIMENTAL PARAMETERS: compounds, Table 2; read-out: IC50 Baker's yeast α-glucosidase

Kindly give each listed record's IC50.
1. C=C(C)[C@@H]1CC[C@]2(C(=O)N(C(=O)NC3CCCCC3)C3CCCCC3)CC[C@]3(C)[C@H](CC[C@@H]4[C@@]5(C)CC[C@H](OC(=O)CCC)C(C)(C)[C@@H]5CC[C@]43C)[C@@H]12
2. C=C(C)[C@@H]1CC[C@]2(C(=O)N(C(=O)NC3CCCCC3)C3CCCCC3)CC[C@]3(C)[C@H](CC[C@@H]4[C@@]5(C)CC[C@H](O)C(C)(C)[C@@H]5CC[C@]43C)[C@@H]12

Solution:
> 600 µM
230 µM

---

SYSTEM NAME: α-Glucosidase (EC 3.2.1.20) from Saccharomyces cerevisiae (Baker's yeast) (Saccharomyces cerevisiae, UniProt P53341)
Construct: purchased Sigma-Aldrich (St. Louis, MO)
Sequence (P53341 whole entry): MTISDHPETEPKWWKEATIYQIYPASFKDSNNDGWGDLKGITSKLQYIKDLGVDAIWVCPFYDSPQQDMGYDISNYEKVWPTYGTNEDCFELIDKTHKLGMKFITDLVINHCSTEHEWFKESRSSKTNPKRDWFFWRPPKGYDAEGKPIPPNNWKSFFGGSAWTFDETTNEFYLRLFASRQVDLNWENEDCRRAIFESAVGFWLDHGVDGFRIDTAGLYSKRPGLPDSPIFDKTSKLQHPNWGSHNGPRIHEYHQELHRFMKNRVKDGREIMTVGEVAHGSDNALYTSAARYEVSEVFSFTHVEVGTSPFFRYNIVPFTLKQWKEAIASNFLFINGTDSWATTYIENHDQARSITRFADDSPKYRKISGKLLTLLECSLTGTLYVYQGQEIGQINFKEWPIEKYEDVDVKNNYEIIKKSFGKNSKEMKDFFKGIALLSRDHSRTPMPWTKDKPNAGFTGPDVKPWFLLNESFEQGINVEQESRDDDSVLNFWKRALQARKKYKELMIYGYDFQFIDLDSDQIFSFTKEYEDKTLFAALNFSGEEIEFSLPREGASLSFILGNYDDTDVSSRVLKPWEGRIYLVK
ASSAY METHOD TEXT: biochemical
EXPERIMENTAL PARAMETERS: compounds, Table 2; read-out: IC50 Baker's yeast α-glucosidase
MEASUREMENT KIND: log10 of IC50 (log10 of the value in µM)
Would you kindly interpret these values as log10 of IC50 expressed in µM?

Some molecules with known log10 of IC50 results, for comparison:
[
  {
    "STRUCTURE AS SMILES": "C=C(C)[C@@H]1CC[C@]2(C(=O)O)CC[C@]3(C)[C@H](CC[C@@H]4[C@@]5(C)CC[C@H](OC(=O)c6ccccc6)C(C)(C)[C@@H]5CC[C@]43C)[C@@H]12",
    "log10 of IC50": 1.86
  },
  {
    "STRUCTURE AS SMILES": "C=C(C)[C@@H]1CC[C@]2(C(=O)O)CC[C@]3(C)[C@H](CC[C@@H]4[C@@]5(C)CC[C@H](OC(C)=O)C(C)(C)[C@@H]5CC[C@]43C)[C@@H]12",
    "log10 of IC50": 1.45
  },
  {
    "STRUCTURE AS SMILES": "C=C(C)[C@@H]1CC[C@]2(C(=O)O)CC[C@]3(C)[C@H](CC[C@@H]4[C@@]5(C)CC[C@H](O)C(C)(C)[C@@H]5CC[C@]43C)[C@@H]12",
    "log10 of IC50": 1.21
  },
  {
    "STRUCTURE AS SMILES": "C=C(C)[C@@H]1CC[C@]2(C(=O)N(C(=O)NC3CCCCC3)C3CCCCC3)CC[C@]3(C)[C@H](CC[C@@H]4[C@@]5(C)CC[C@H](OC(C)=O)C(C)(C)[C@@H]5CC[C@]43C)[C@@H]12",
    "log10 of IC50": 2.45
  }
]

Note to self: log10 of IC50 recorded for C=C(C)[C@@H]1CC[C@]2(C(=O)O)CC[C@]3(C)[C@H](CC[C@@H]4[C@@]5(C)CC[C@H](OC(=O)CCCCC)C(C)(C)[C@@H]5CC[C@]43C)[C@@H]12 was 1.86

---

SYSTEM NAME: rat intestinal α-glucosidase (maltase)
ASSAY METHOD TEXT: rat intestinal α-glucosidase (maltase) inhibition assay
EXPERIMENTAL PARAMETERS: rat intestine; compounds, Table 2
pIC50: −log10 of the molar value.
MEASUREMENT KIND: pIC50

[
  {
    "COMPOUND": "C[C@H]1O[C@H](O[C@H]2[C@H](O)[C@@H](O)[C@@H](O[C@H]3[C@H](O)[C@@H](O)C(O)O[C@@H]3CO)O[C@@H]2CO)[C@H](O)[C@@H](O)[C@@H]1N[C@H]1C=C(CO)[C@@H](O)[C@H](O)[C@H]1O (some centres unmarked) [Acarbose, reference compound]",
    "SYSTEM NAME": "rat intestinal α-glucosidase (maltase)",
    "MEASUREMENT KIND": "pIC50",
    "RESULT": 5.10
  },
  {
    "COMPOUND": "C=C(C)[C@@H]1CC[C@]2(C(=O)N(C(=O)NC3CCCCC3)C3CCCCC3)CC[C@]3(C)[C@H](CC[C@@H]4[C@@]5(C)CC[C@H](O)C(C)(C)[C@@H]5CC[C@]43C)[C@@H]12",
    "SYSTEM NAME": "rat intestinal α-glucosidase (maltase)",
    "MEASUREMENT KIND": "pIC50",
    "RESULT": "< 2.52"
  },
  {
    "COMPOUND": "C[C@@H]1O[C@@H](O[C@H]2[C@H](Oc3c(-c4ccc(O)cc4)oc4cc(O)cc(O)c4c3=O)O[C@@H](C)[C@H](O)[C@H]2O)[C@H](O)[C@H](O)[C@H]1O",
    "SYSTEM NAME": "rat intestinal α-glucosidase (maltase)",
    "MEASUREMENT KIND": "pIC50",
    "RESULT": "< 2.52"
  },
  {
    "COMPOUND": "C=C(C)[C@@H]1CC[C@]2(C(=O)O)CC[C@]3(C)[C@H](CC[C@@H]4[C@@]5(C)CC[C@H](OC(=O)CCCC)C(C)(C)[C@@H]5CC[C@]43C)[C@@H]12",
    "SYSTEM NAME": "rat intestinal α-glucosidase (maltase)",
    "MEASUREMENT KIND": "pIC50",
    "RESULT": "< 2.52"
  }
]

Entry under test: C=C(C)[C@@H]1CC[C@]2(C(=O)O)CC[C@]3(C)[C@H](CC[C@@H]4[C@@]5(C)CC[C@H](OC(=O)CCCCC)C(C)(C)[C@@H]5CC[C@]43C)[C@@H]12 . Its pIC50 was < 2.52

---

SYSTEM NAME: α-Glucosidase (EC 3.2.1.20) from Saccharomyces cerevisiae (Baker's yeast) (Saccharomyces cerevisiae, UniProt P53341)
Construct: purchased Sigma-Aldrich (St. Louis, MO)
ASSAY METHOD TEXT: biochemical
EXPERIMENTAL PARAMETERS: restated in mM in docking section; read-out: experimental IC50 yeast α-glucosidase
MEASUREMENT KIND: IC50 (mM)
Give bare numbers, in mM.

In plain terms, C=C(C)[C@@H]1CC[C@]2(C(=O)O)CC[C@]3(C)[C@H](CC[C@@H]4[C@@]5(C)CC[C@H](O)C(C)(C)[C@@H]5CC[C@]43C)[C@@H]12 has a documented IC50 of 0.016

---

SYSTEM NAME: α-Glucosidase (EC 3.2.1.20) from Saccharomyces cerevisiae (Baker's yeast) (Saccharomyces cerevisiae)
Construct: purchased Sigma-Aldrich (St. Louis, MO)
ASSAY METHOD TEXT: biochemical
EXPERIMENTAL PARAMETERS: IC50 Baker's yeast α-glucosidase, compounds, Table 2
MEASUREMENT KIND: IC50

Here are 2 compounds together with their reported answers.
[
  {
    "STRUCTURE AS SMILES": "C[C@@H]1O[C@@H](O[C@H]2[C@H](Oc3c(-c4ccc(O)cc4)oc4cc(O)cc(O)c4c3=O)O[C@@H](C)[C@H](O)[C@H]2O)[C@H](O)[C@H](O)[C@H]1O",
    "IC50": "> 600 µM"
  },
  {
    "STRUCTURE AS SMILES": "C[C@@H]1O[C@@H](O[C@H]2[C@H](Oc3c(-c4ccc(O)c(O)c4)oc4cc(O)cc(O)c4c3=O)O[C@@H](C)[C@H](O)[C@H]2O)[C@H](O)[C@H](O)[C@H]1O",
    "IC50": "> 600 µM"
  }
]

Next item in the queue.
Input C=C(C)[C@@H]1CC[C@]2(C)CC[C@]3(C)[C@H](CC[C@@H]4[C@@]5(C)CC[C@H](O)C(C)(C)[C@@H]5CC[C@]43C)[C@@H]12 . Output IC50: 37.2 µM
